- Test Details: qHTS Screen of the MIPE 4.0 Collection Against Ewings Sarcoma (TC32) (AID 1259256); further: nearly all actives have a fitted effect of over 45% in size
- Assay Conditions: TC32 Ewing sarcoma viability, CellTiter-Glo, 48 h; series mostly up to 45.8 µM
Records with an inconclusive call do not appear. Active and inactive are the calls of the source. The call rests on the fitted dose curve; in most records, active means well fitted inhibition curve with a large enough effect; inconclusive means small, poorly fitted or top-dose-only effect; inactive means no such curve, though single readings can be large or run the other way.
Select the matching outcome among active, inactive

Clc1ccccc1C(c1ccccc1)(c1ccccc1)n1cccn1; active

In: Per the assay record, what outcome was assigned to O=C1CCC[C@@H]2[C@H]3CCCN4CCC[C@@H](CN12)[C@@H]34 ?
Out: inactive

In: Per the assay record, what outcome was assigned to CC=C(C)C(=O)O[C@H]1C(C)=C2[C@@H]3OC(=O)[C@@](C)(O)[C@@]3(O)[C@@H](OC(=O)CCC)C[C@](C)(OC(C)=O)[C@@H]2[C@@H]1OC(=O)CCCCCCC ?
Out: active

In: Per the assay record, what outcome was assigned to Cc1ccccc1-n1c(Cn2ncc3c(N)ncnc32)nc2cccc(C)c2c1=O ?
Out: active

====

- Test Details: qHTS for Activators of Parkin Expression: LOPAC Validation Assay (NLuc Reporter) (AID 720572)
- Assay Conditions: Parkin promoter NanoLuc reporter cells, luminescence, percent of positive control, DMSO as zero; series mostly up to 46.1 µM
Inconclusive results are not listed. Active and inactive are the calls of the source. Calls follow the shape of the dose curve; as a rule, active = well fitted activation curve with a large enough effect; inconclusive = small, poorly fitted or top-dose-only effect; inactive = flat fitted curve, though single readings scatter.
Measured Quantity: outcome

Sample answers from the record:
c1ccc(C2(c3ccccc3)CC2C2=NCCN2)cc1 (stereo unspecified); inactive
CC[C@@]1(O)C(=O)OCc2c1cc1n(c2=O)Cc2cc3ccccc3nc2-1; inactive
NCc1cc(=O)[nH]o1; inactive
Clc1cnc(Oc2ccc(Oc3ncc(Cl)cc3Cl)cc2)c(Cl)c1; inactive
NC1CCc2cc(O)c(O)cc2C1 (stereo unspecified); inactive
c1ccc(CCCN2CCN(CCOC(c3ccccc3)c3ccccc3)CC2)cc1; inactive
CNCCc1c[nH]c2ccc(O)cc12; inactive
O=C(Cc1ccc(Cl)c(Cl)c1)N1CCCCC1CN1CCCC1 (stereo unspecified); inactive
CCCN1CCC[C@H](c2cccc(O)c2)C1; inactive
NC(=O)CN1CC(O)CC1=O (stereo unspecified); inactive

Switching to the query record.
Entry COC(=O)[C@@H](N)CCCN=C(N)N[N+](=O)[O-] , outcome reported as inactive

====

- Test Details: qHTS of pediatric cancer cell lines to identify multiple opportunities for drug repurposing: Confirmatory screen for RD cells (AID 1347124);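 further: cells exposed to compound for 48 h before viability readout; nearly all actives have a fitted effect of over 65% in size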
- Assay Conditions: RD rhabdomyosarcoma cell viability; series mostly up to 45.9 µM
Results filed as inconclusive are left out. The source made the active and inactive calls. The call rests on the fitted dose curve; in most records, active means well fitted cell-killing curve with a large enough effect; inconclusive means small, poorly fitted or top-dose-only effect, or effect the other way; inactive means no such curve, though single readings can be large or run the other way.
Select the matching outcome among True = active, False = inactive

Sample answers from the record:
CC(=Cc1csc(C)n1)[C@@H]1C[C@H]2O[C@@H]2CCC[C@H](C)[C@@H](O)[C@@H](C)C(=O)C(C)(C)[C@@H](O)CC(=O)O1; True
CC[C@@H]1[C@@H](C)O[C@@](O)([C@@H](C)[C@H](O)[C@H](C)[C@H]2OC(=O)C=CC=C[C@@H](C)[C@@H]([C@@H](C)[C@@H](O)[C@H](C)[C@@]3(O)C[C@H](O[C@H]4C[C@H](O)[C@H](O)[C@H](C)O4)[C@H](CC)[C@@H](C)O3)OC(=O)C=CC=C[C@@H]2C)C[C@H]1O[C@H]1C[C@H](O)[C@H](O)[C@H](C)O1; False
O=C1C(I)=CC(=C(c2cc(I)c(O)c(I)c2)c2ccccc2C(=O)O)C=C1I; False
C[C@@]12OC(=O)[C@]1([C@@H](O)[C@@H]1C=CCCC1)NC(=O)[C@H]2CCCl; True
C[C@@H]1O[C@@H](O[C@@H]2C=C3CC[C@@H]4[C@@H](CC[C@]5(C)[C@H](c6ccc(=O)oc6)CC[C@@]45O)[C@@]3(C)CC2)[C@H](O)[C@H](O)[C@H]1O; True

In: Per the assay record, what outcome was assigned to O=C(N[C@H]1CN2CCC1CC2)c1ccc(Cl)cc1 ?
Out: True
